Attribution: patent US6649595B2

IC50 values by entry
Target: FKBPwt (Homo sapiens)
Construct: made in house
Sequence (P62942 whole entry): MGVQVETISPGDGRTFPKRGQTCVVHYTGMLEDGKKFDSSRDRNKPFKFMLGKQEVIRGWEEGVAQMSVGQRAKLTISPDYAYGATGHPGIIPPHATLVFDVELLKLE
Assay: Competitive fluorescence polarization (FP) binding assay of rapalogs to FKBP
Settings: C7 rapalogs; read-out: FKBPwt FP binding assay IC50

{"columns": ["SMILES RECORD", "MEASUREMENT TARGET", "MEASURE UNIT", "IC50"],
 "data": [
  ["CO[C@@H]1C[C@H](C[C@@H](C)[C@@H]2CC(=O)[C@H](C)/C=C(\\C)[C@@H](O)[C@@H](OC)C(=O)[C@H](C)C[C@H](C)/C=C/C=C/C=C(\\C)[C@@H](c3ccc(C(C)(C)C)s3)C[C@@H]3CC[C@@H](C)[C@@](O)(O3)C(=O)C(=O)N3CCCC[C@H]3C(=O)O2)CC[C@H]1O", "FKBPwt (Homo sapiens)", "nM", 2.9],
  ["COC(=O)N[C@H]1C[C@@H]2CC[C@@H](C)[C@@](O)(O2)C(=O)C(=O)N2CCCC[C@H]2C(=O)O[C@H]([C@H](C)C[C@@H]2CC[C@@H](O)[C@H](OC)C2)CC(=O)[C@H](C)/C=C(\\C)[C@@H](O)[C@@H](OC)C(=O)[C@H](C)C[C@H](C)/C=C/C=C/C=C/1C", "FKBPwt (Homo sapiens)", "nM", 4.3]
]}
